This section presents binders with their documented Internalization %, MDA-MB-231, 1 µg/ml, 4 h values.
Target entity: T1, human Trop-2 expressed on cell surface (human, UniProt P09758 27-323)
T1 sequence (looked up): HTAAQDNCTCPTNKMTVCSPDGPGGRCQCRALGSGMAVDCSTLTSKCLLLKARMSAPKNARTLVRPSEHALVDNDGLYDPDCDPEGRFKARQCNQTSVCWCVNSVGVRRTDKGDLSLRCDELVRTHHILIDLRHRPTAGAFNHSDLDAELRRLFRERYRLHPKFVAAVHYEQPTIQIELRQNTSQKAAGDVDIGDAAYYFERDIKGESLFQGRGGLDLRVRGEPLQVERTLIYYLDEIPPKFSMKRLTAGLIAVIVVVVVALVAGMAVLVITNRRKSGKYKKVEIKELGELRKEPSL
Protocol details: cell-based or functional assay
For clarity, give the value followed by its unit.

Query: So what's the measured Internalization %, MDA-MB-231, 1 µg/ml, 4 h for this one? 62E3 (antibody, V domains shown, Rabbit-derived clone; LEM construct: VH + rabbit IgG CH1 + human IgG1 CH2-CH3) VH: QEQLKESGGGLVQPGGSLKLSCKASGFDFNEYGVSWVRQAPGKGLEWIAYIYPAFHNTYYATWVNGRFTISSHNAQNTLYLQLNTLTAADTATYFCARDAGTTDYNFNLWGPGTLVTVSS VL: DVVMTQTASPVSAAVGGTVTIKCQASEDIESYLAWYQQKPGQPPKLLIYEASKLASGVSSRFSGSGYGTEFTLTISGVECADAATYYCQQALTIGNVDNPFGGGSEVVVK
Result: 49%

Query: So what's the measured Internalization %, MDA-MB-231, 1 µg/ml, 4 h for this one? 65D5 (antibody, V domains shown, Rabbit-derived clone; LEM construct: VH + rabbit IgG CH1 + human IgG1 CH2-CH3) VH: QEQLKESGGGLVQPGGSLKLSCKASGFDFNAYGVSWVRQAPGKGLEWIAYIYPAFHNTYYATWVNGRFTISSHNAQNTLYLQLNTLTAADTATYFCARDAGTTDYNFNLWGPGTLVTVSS VL: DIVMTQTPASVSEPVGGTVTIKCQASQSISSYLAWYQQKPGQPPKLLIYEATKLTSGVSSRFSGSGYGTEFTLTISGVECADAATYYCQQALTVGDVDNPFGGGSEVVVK
Result: 48%

Query: So what's the measured Internalization %, MDA-MB-231, 1 µg/ml, 4 h for this one? 1D10 (antibody, V domains shown, Rabbit-derived clone; LEM construct: VH + rabbit IgG CH1 + human IgG1 CH2-CH3) VH: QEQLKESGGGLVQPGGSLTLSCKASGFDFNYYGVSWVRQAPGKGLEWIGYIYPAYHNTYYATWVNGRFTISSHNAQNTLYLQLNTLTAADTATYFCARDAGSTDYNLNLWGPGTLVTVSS VL: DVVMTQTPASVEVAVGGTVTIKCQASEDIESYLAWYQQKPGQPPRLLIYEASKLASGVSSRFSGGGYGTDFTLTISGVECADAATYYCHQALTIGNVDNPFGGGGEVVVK
Result: 51%

Query: So what's the measured Internalization %, MDA-MB-231, 1 µg/ml, 4 h for this one? 9D7 (antibody, V domains shown, Rabbit-derived clone; LEM construct: VH + rabbit IgG CH1 + human IgG1 CH2-CH3) VH: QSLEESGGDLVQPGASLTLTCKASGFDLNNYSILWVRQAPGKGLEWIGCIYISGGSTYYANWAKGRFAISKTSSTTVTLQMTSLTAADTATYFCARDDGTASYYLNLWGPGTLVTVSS VL: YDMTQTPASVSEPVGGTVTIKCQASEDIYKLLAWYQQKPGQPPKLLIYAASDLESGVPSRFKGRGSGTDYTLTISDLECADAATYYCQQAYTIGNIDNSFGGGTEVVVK
Result: 54%

Shift focus to the following entry.
Query: So what's the measured Internalization %, MDA-MB-231, 1 µg/ml, 4 h for this one? 5D4-2 (antibody, V domains shown) VH: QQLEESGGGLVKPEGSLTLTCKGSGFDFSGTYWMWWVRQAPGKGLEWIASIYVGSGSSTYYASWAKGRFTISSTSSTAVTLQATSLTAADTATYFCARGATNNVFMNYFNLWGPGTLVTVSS VL: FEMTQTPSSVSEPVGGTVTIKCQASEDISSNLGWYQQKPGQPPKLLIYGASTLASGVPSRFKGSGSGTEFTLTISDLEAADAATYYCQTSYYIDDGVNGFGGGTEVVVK
Result: 58%

Reference source: patent US20250206841A1
